assay text: self-splicing fitness, log relative to wild type (ln ratio); higher = more splicing; Tetrahymena group I intron in knt gene, E. coli kanamycin selection, DiMSum; sequences stand for … in CUCUCU…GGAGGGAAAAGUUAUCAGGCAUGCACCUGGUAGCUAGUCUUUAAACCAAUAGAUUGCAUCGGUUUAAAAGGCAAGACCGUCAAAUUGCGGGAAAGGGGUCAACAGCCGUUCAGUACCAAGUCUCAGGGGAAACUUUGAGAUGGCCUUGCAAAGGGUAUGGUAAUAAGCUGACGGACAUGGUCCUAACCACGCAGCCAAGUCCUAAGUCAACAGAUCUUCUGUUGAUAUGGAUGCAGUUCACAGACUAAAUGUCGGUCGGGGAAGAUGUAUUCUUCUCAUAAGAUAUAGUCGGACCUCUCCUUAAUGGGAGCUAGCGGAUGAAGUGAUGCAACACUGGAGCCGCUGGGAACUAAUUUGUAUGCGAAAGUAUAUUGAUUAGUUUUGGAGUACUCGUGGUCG;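 further: selection with 25 µg/mL kanamycin versus none on LB agar overnight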
study conditions: 30 °C
# binarize self-splicing fitness (ln): threshold -2 inclusive, high side true (1), low side false (0)

        primary_sequence  class_name
 0  AGGUAGCAAUAUUACGGCUC    true (1)
 1  UAUUAGCAAUAUUACGUACU    true (1)
 2  UCGAAGCAAUAUUACGGUCG    true (1)
 3  UAUUAGCAAUAUUACGGACU   false (0)
 4  ACGUAGCAAUAUUACGGUAC   false (0)
 5  CAAGAGCAAUAUUACGUCUG    true (1)
 6  GAUGAGCAAUAUUACGGCUU   false (0)
 7  UGAUAGCAAUAUUACGGUUA    true (1)
 8  CUAGAGCAAUAUUACGCCGC   false (0)
 9  CAGCAGCAAUAUUACGCAGA   false (0)
10  GGCAAGCAAUAUUACGGGGU   false (0)
11  CGGGAGCAAUAUUACGGGAC   false (0)
12  AGCCAGCAAUAUUACGAGGG   false (0)
13  AUACAGCAAUAUUACGACCA    true (1)
14  GAGAAGCAAUAUUACGGUCC   false (0)
15  CUAAAGCAAUAUUACGGAAC   false (0)
16  AGUUAGCAAUAUUACGGUCA    true (1)
17  GAAAAGCAAUAUUACGGGAU   false (0)
18  AAAUAGCAAUAUUACGAAUC   false (0)
19  UACAAGCAAUAUUACGCCAA    true (1)
20  UACAAGCAAUAUUACGCGAA   false (0)
21  GCUUAGCAAUAUUACGCUCG    true (1)
22  CGGAAGCAAUAUUACGCCUA    true (1)
23  AAAAAGCAAUAUUACGCAUA    true (1)
24  GAAUAGCAAUAUUACGAACG    true (1)
25  ACUUAGCAAUAUUACGCGGG   false (0)
26  CCAUAGCAAUAUUACGCAAU   false (0)
27  AACGAGCAAUAUUACGUGGU   false (0)
